Task for the reader: assign each of the following molecules its reported C3.7 score.
biological target: CDK6/cyclinD3 human (Homo sapiens, UniProt Q00534); assay: Kinase profiling C3.7 CDK6/cyclinD3 human; format: biochemical; conditions: CDK6/cyclinD3, test concentration of 10^−6 M
Sequence (Q00534 whole entry): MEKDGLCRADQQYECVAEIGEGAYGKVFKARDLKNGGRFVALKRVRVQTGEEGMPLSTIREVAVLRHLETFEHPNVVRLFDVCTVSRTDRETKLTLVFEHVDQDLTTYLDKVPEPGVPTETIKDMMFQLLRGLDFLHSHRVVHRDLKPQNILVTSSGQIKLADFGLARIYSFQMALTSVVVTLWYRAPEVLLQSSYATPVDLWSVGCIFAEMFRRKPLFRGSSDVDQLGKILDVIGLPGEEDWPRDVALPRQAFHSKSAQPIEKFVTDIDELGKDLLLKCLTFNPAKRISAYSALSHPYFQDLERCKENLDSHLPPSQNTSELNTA
Sequence (P30281 whole entry partner): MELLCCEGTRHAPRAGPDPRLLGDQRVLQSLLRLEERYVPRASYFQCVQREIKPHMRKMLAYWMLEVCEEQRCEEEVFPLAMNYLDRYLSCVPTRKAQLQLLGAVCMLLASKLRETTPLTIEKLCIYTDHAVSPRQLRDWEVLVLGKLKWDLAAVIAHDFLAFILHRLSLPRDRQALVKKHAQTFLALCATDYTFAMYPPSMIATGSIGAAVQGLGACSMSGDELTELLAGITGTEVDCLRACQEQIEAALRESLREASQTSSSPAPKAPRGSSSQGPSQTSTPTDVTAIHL

Take a look at these entries with their results.
CN1CCC(=O)NCCNc2cc(ccn2)-c2ncnc(n2)Nc2cccc(c2)C1 [Compound 20] ... 1 (Score 1 = 10-30% inhibition)
CN1CC(=O)NCCCc2cc(ccn2)-c2ncnc(n2)Nc2cccc(c2)C1 [Compound 8] ... 2 (Score 2 = 30-60% inhibition)
CN1CC(=O)NC/C(Cl)=C/c2cc(ccn2)-c2ncnc(n2)Nc2cccc(c2)C1 [Compound 2] ... 4 (Score 4 = >80% inhibition)
O=C1NCCCNc2cc(ccn2)-c2ncnc(n2)Nc2cccc(c2)CN2CCC[C@@H]12 [Compound 21] ... 1 (Score 1 = 10-30% inhibition)
CN1CC(=O)NCCCc2cc(ccn2)-c2ncnc(n2)Nc2cccc(c2)C1 [Compound 10] ... 4 (Score 4 = >80% inhibition)

Provide C3.7 score for all items below, preserving their order.
1. CCN1CCCc2cc(ccn2)-c2ncnc(n2)Nc2cccc(c2)CCNC(=O)C1 [Compound 30]
2. O=C1NCCCc2cccc(c2)-c2ncnc(n2)Nc2cccc(c2)CN[C@H]1CO [Compound 46]

["1 (Score 1 = 10-30% inhibition)", "1 (Score 1 = 10-30% inhibition)"]

* * *

molecular target: CDK1/cyclinB (h) (Homo sapiens, UniProt P06493); test: Kinase profiling C3.2 CDK1/cyclinB human; type: biochemical; details: test concentration of 10^−6 M
Sequence (P06493 whole entry): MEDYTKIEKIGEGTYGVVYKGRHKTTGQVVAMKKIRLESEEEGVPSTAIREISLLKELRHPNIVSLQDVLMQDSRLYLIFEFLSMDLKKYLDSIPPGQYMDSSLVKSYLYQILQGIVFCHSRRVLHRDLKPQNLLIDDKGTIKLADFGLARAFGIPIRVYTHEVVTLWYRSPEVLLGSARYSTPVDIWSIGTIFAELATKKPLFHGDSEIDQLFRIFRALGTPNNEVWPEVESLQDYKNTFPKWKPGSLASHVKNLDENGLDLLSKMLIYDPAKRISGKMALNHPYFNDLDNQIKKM
Sequence (P14635 whole entry partner): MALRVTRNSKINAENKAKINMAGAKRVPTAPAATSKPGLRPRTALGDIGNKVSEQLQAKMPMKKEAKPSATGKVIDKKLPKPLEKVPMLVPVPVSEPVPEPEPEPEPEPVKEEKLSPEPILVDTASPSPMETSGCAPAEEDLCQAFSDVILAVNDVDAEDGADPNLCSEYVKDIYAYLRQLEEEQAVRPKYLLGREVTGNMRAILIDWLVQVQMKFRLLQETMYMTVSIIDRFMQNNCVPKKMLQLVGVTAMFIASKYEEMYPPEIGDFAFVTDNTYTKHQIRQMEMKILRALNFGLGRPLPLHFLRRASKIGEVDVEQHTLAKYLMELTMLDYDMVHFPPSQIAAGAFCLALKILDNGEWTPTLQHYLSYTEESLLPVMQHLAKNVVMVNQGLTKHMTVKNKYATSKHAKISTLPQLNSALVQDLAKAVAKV
test_readout: C3.2 score

Provide C3.2 score for all items below, preserving their order.
1. CN1CCC(=O)NCCNc2cc(ccn2)-c2ncnc(n2)Nc2cccc(c2)C1 [Compound 17]
2. CN1CC(=O)NC/C(Cl)=C/c2cc(ccn2)-c2ncnc(n2)Nc2cccc(c2)C1
3. CN1Cc2cccc(c2)Nc2ncnc(n2)-c2ccnc(c2)NCCCNC(=O)CCN2CCC1CC2
4. CCN1CC(=O)NCCCc2cccc(c2)-c2ncnc(n2)Nc2cccc(c2)C1
5. CCN1CC(=O)NCCCc2cc(ccn2)-c2ncnc(n2)Nc2cc(Cl)cc(c2)C1

["4 (Score 4 = >80% inhibition)", "4 (Score 4 = >80% inhibition)", "2 (Score 2 = 30-60% inhibition)", "3 (Score 3 = 60-80% inhibition)", "4 (Score 4 = >80% inhibition)"]

* * *

Task for the reader: assign each of the following compounds its reported C3.7 score.
target: CDK6/cyclinD3 human (Homo sapiens, UniProt Q00534); test: Kinase profiling C3.7 CDK6/cyclinD3 human; type: biochemical; conditions: CDK6/cyclinD3, test concentration of 10^−6 M

O=C1NCCCc2cc(ccn2)-c2ncnc(n2)Nc2cccc(c2)CN2CCCC12 (centres unmarked) [Compound 12] ... 1 (Score 1 = 10-30% inhibition)

Provide C3.7 score for all items below, preserving their order.
1. CN1CCC(=O)NCCCc2cc(ccn2)-c2ncnc(n2)Nc2cccc(c2)C1 [Compound 3]
2. O=C1NCCc2cccc(c2)Nc2ncnc(n2)-c2ccnc(c2)CCCN2CCCC1C2 (centres unmarked) [Compound 26]
3. CN1Cc2cccc(c2)Nc2ncnc(n2)-c2ccnc(c2)NCCCNC(=O)CCN2CCC1CC2 [Compound 23]

["2 (Score 2 = 30-60% inhibition)", "1 (Score 1 = 10-30% inhibition)", "1 (Score 1 = 10-30% inhibition)"]

Which C3.7 score value is on record for O=C1NCCc2cccc(c2)Nc2ncnc(n2)-c2ccnc(c2)CCCN2C[C@H](O)C[C@@H]12 [Compound 25] ?
2 (Score 2 = 30-60% inhibition)

* * *

biological target: CDK5/p35 human (Homo sapiens, UniProt Q00535); assay: Kinase profiling C3.6 CDK5/p35 human; format: biochemical; conditions: CDK5/p35, test concentration of 10^−6 M
Sequence (Q00535 whole entry): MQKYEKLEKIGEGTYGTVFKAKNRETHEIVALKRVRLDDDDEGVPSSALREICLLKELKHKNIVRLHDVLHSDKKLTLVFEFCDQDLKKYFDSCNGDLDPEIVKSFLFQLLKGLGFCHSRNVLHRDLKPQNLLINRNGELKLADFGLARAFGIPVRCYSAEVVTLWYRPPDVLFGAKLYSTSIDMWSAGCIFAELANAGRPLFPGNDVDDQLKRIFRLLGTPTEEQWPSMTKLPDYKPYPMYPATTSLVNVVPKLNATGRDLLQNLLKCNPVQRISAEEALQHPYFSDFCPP
Sequence (Q15078 whole entry partner): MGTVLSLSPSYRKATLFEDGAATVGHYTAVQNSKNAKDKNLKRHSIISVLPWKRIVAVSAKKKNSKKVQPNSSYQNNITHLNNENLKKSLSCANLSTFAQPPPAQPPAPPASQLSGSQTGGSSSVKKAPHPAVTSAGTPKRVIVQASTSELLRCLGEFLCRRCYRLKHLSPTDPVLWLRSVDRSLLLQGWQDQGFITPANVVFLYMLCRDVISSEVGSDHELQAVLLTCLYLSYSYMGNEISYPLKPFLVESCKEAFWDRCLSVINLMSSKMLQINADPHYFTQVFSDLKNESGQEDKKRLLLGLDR
test_readout: C3.6 score

Provide C3.6 score for all items below, preserving their order.
1. CN1CCC(=O)NCCCc2cc(ccn2)-c2ncnc(n2)Nc2cc(Cl)cc(c2)C1
2. CN1CC(=O)NCCCc2cc(ccn2)-c2ncnc(n2)Nc2cccc(c2)C1 [Compound 10]

4 (Score 4 = >80% inhibition)
4 (Score 4 = >80% inhibition)

Provide C3.6 score for all items below, preserving their order.
1. O=C1CN2CCN(CC2)Cc2cccc(c2)Nc2ncnc(n2)-c2cncc(c2)CCCN1
2. CN1CCN(CCN2CCC(=O)NCCCc3cc(ccn3)-c3ncnc(n3)Nc3cccc(c3)C2)CC1
3. CN1CC(=O)NCC#Cc2cc(ccn2)-c2ncnc(n2)Nc2cccc(c2)C1
4. CN1CCCC(=O)NCCc2cccc(c2)Nc2ncnc(n2)-c2ccnc(c2)CCC1
5. O=C1CCN2CCN(CC2)Cc2cccc(c2)Nc2ncnc(n2)-c2ccnc(c2)NCCCN1

1: 2 (Score 2 = 30-60% inhibition); 2: 1 (Score 1 = 10-30% inhibition); 3: 4 (Score 4 = >80% inhibition); 4: 2 (Score 2 = 30-60% inhibition); 5: 2 (Score 2 = 30-60% inhibition)

Which C3.6 score value is on record for CN1CCCC(=O)NCCCc2cc(ccn2)-c2ncnc(n2)Nc2cccc(c2)C1 ?
1 (Score 1 = 10-30% inhibition)
